ASSAY_COMMENT: yeast display, Sf9 membrane polyspecificity reagent, FACS + sequencing; frameworks hold sequencing errors
QUANTITY: polyreactivity (PSR sort gate)

polyreactivity (PSR sort gate) for QVQLVESGGGLVQEGGSLRLSCAASASIFRYNAMGWYRQAPGKERELVAAITSRDGSTYYADSVKGRFTISRDNAQNTVYFQMNSLKPEDTAVYYCAVQPDSGNYDSGIYDRVGMDYWGQGTQVTVSS is low polyreactivity

polyreactivity (PSR sort gate) for QVQLVESGGGLVQAGGSLRLSCAASGFIFLGNAMGWYRQAPGKERELVAAISSGGSTYADSVKGRFTISRDNAKNTVYLQMNSLKPEDTAVYYCAVDRAFRAQNYHEYDYWGQGTQVNVSS is low polyreactivity

polyreactivity (PSR sort gate) for QVQLVESGGGLVQAGGSLRLSCAASGSIFSLYAMGWYRQAPGKERELVAAISSSGTSTYYADSVKGRFTISRDNAKNTVYLQMYSLKTEDTAVYYCNAYRRRATYNGDYWGQGTQVTVSS is high polyreactivity

polyreactivity (PSR sort gate) for QVQLVESGGGLVQAGGSLRLSCAASGSILNPNAMGWSRQAPGKERELVASISKSGGSTYYADSVKGRFTISRDNAKNTVYLQMNSLKPEDTAVYYCAAAFVSVRERYGYWGQGTQVTVSS is high polyreactivity

From here, focus on the item given below.
polyreactivity (PSR sort gate) for QVQLVESGGGLVQAGGSLRLSCAASGIIFSYNAMGWYRQAPGKERELVAAITRRGTRTYYADSVKGRFTISRDNAKNTVYLQMNSLKPEDSAVYYCAADYVRPGTKYDYWGQGTQVTVSS is high polyreactivity

---

ASSAY_COMMENT: yeast display, Sf9 membrane polyspecificity reagent, FACS + sequencing; frameworks hold sequencing errors
QUANTITY: polyreactivity (PSR sort gate)

Example cases with answers are listed next.
polyreactivity (PSR sort gate) for QVQLVESGGGLVQAGGSLRLSCAASGSTFFLKAMGWYRQSPGKERELVAAISYSDSGTNYADSVKGRFTISRDNAKNTVYLQMNSLKPEDTAVYYCATAVRPWYVTSGNYWGQGTQVTVSS is low polyreactivity

polyreactivity (PSR sort gate) for QVQLVESGGGLVQAGGSLRLSCASSGSTFLRNAMGWYRHAPRKERELVAAFSLGSGSTYYADSVKGRFTISRDNAKNTVYLQMNSLKPEDTAVYYCAADVSRWLDYGYDYWGQGTQVTVSS is low polyreactivity

polyreactivity (PSR sort gate) for QVQLVESGGGLVQAGGSLRLSCAASGFTFSRNAMGWYRQAPGKERELVAAITSRGGSTYYADSVKGRFTISRDNAKNTVYLQMNSLKPEDTAVYYCNAKLISGIYTADSRSRIYDYWGQGTQVTVSS is high polyreactivity

polyreactivity (PSR sort gate) for QVQLVESGGGLVQAGGSLRVSCAASGFTFYRYAMGWYRQAPGKERELVAAITWSGGSTYYADSVKGRFTISRDNAKNTVYLQMNSLKPEDTAVYYCAADIYDGGFDYWGQGTQVTVSS is low polyreactivity

From here, focus on the item given below.
polyreactivity (PSR sort gate) for QVQLVESGGGLVQAGGSLRLSWAASGRIFASYAMGWYRQATGKERELVAAISGSGGSTYYADSVKGRFTMSRDNAKKTVYLQLNSLKPEDTAVYYCAARYRSYWYRYVGYDYWGQGTQVNVSS is high polyreactivity

---

ASSAY_COMMENT: yeast display, Sf9 membrane polyspecificity reagent, FACS + sequencing; frameworks hold sequencing errors
QUANTITY: polyreactivity (PSR sort gate)

Example cases with answers are listed next.
polyreactivity (PSR sort gate) for QVQLVESGGGLVQAGGSLRLSCAASGSIFGGYAMGWYRQAPGKERELVAAISFSGGSTYYADSVKGRFTISRDNAKNTVYSQMNSLKPEDTAVYYCAADPYYSYLFDYWGQGTQVTVSS is low polyreactivity

polyreactivity (PSR sort gate) for QVQLVESGGGLVQAGGSLRLSCAASGFIFYAYAMGWYRQAPGKERELVAAITGSGGRTYYADSVKGRFTISRDNAKNTVYLQMNSLKPEDTAVYYCAAYYTSGGSRTYDYWGQGTQVTVSS is high polyreactivity

polyreactivity (PSR sort gate) for QDQLVESGGCLVQAGGSLRLRCAASGRTFEAYAKGGYRQAPGKERELVASISSGGSTYYADSVNGRFTISRDNAKNTVYLQMNSLKPEDTAVYYCAAKRATRYYFAYYRARSERMNYWGQGTQVTVSS is high polyreactivity

polyreactivity (PSR sort gate) for QVQLVESGGGLVQAGSSLRLSCAASGSTLRTNAMGWYRQAPGKEREFVADISKRGGRTYYADSVKGRFTISRDNAKNTVYLQMNSLKPEDTAVYYCAKLVSLAGRIYGYWGQGTQVTVSS is high polyreactivity

polyreactivity (PSR sort gate) for QVQLVESGGGLVQAGGSLRLSCAASGRTFYYYAMGWYRPAPGKERELVAAITSGGRTYYADSVKGRFTISRDNAKNRVYLQMQSLKPEDTAVYYCAARDFFRYSLGYDYWGQGTQVTVSS is high polyreactivity

Others:
polyreactivity (PSR sort gate) for QVQLVESGGGLVQAGGSLRLSCAASGSTFKRYAMGWYRQAPGKERELVAAITSGSSTYYADSVKGRFTISRDNAKNTVYLQMNSLKPEDTAVYYCAARRAGAKYYLYGYDYWGQGTQVTVSS is low polyreactivity

polyreactivity (PSR sort gate) for QVQLVESGGGLVQAGGSLRLSCAASGYTFATKVMGWYRQAPGKERELVATITGSGGSTYYADSVKGRLTISRDNAKNTVYLQMNSLTPEDTAVYNCAARLYGWYYGGYTRYDYWGQGTQVTVSS is high polyreactivity

polyreactivity (PSR sort gate) for QVQLVESGGGLVQAGGSLRLSCAASGRTFTGYAMGWYRQAPGKERELVAAITSNGARTYYADSVKGRFTISRDNAKNTVYLQMNSLKPEDTAVYYCNRVRVYTHTAWGDDYWGQGTQVTVSS is low polyreactivity

polyreactivity (PSR sort gate) for QVQLVESGGGLVQAGGSLRLSCAASGSTFRTYSMGWYRQAPGKEREWVASITSSGASTYYADSVKGRFTISRDNAKNTVYLQMNSLKPEDTAVYYCAKGYPWYYRYKYDSWGQGTQVTVSS is high polyreactivity

polyreactivity (PSR sort gate) for QVQLVDSGGGLVQAGASLPLSCAASGATFYIYARGWNIQAPGKERELVAANTWSGGRTFYADSVKGRFTMSRDNAKNTDYLQMNSLKPEDTAVYYCANRVRTGSVGNFNYWGQGTQVNVSS is high polyreactivity

polyreactivity (PSR sort gate) for QVQLVESGGGLVQAGGSLRLSCAASGFTFPVYTMGWYRQAPGKERELVAAISTSGAGTYYADSVKGRFTISRDNAKNTVYLQMNSLKPEDTAVYYCAAYKRGRPEMYYWGQGTQVTVSS is high polyreactivity

polyreactivity (PSR sort gate) for QVQLVESGGGLVQAGGSLRLSCAASGRIFAENAMGWYRQAPGKERELVAAISRTGSRTYYADSVKGRFTISRDNAKNTVYLQMNSLKPEDSAVYYCNKVSAQDEFRSRGYWGQGTQVTVSS is high polyreactivity

polyreactivity (PSR sort gate) for QVQLVESGGGLVQAGGSLRLSCAASGRIFGPNDMGWYRQAPGKDRELVAAISWSGSSTRYADSVKGRFTISRDNAKNTVYLQMNSLKPEDTAGYYCAADRYWHSVVRDEDYWGQGTQVTVSS is low polyreactivity

polyreactivity (PSR sort gate) for QVHLVESGGGLVQAGGSLRLSCAASGSTFPYYAMGWYRQAPGKEREWVAAITSSASTYFADSVKGRFTISRDNAKNTVYLQMNSLKPEDTAVYYCAVRSPYRLSSWRVGYWGQGTQVTVSS is high polyreactivity

polyreactivity (PSR sort gate) for QVQLVESGGGLVQAGGSLRLSCAASGYIFRGYVMGWYRQAPGKERELVAAISYGDGGTYYADSVKGRFTLSRDNAKNTVYLQMNSLKPEDTAVYYCAAPPYSFWGDYYSAGYYYWGQGTQVTVSS is low polyreactivity

polyreactivity (PSR sort gate) for QVQLVESGGGLVQAGGSLRLSCAASGRTLSFYTMGWYRQAPGKERELVAAISSRTGSTYYADSVKGRFTISRDNAKNTVYLQMNRLKPEDTAVYYCAAASRAFAGSGHYYWGQGTQVTVSS is high polyreactivity

polyreactivity (PSR sort gate) for QVQLLETGGGLVQAGGSLRLSCAASGSTFTIYAMGLYRQAPGKEMELVAVITRGSTNYADSVKGRFTISRDNAKNTVYLQMYSLKPEDSAVYYCNARRYGKVVRSRYNYWGQGTQVTVSS is high polyreactivity

polyreactivity (PSR sort gate) for QVQLVESGGGLVQAGGSLRLSCAASGRIFTPYAMGWYRQAPGKEREFVATISFRGDSTYYADSVKGRFTISRDNAKNSVYLQMNSLKPEDTAVYYCAARQYGGYGYWGQGTQVTVSS is high polyreactivity

polyreactivity (PSR sort gate) for QVQLVESGCGLVHAGGSLRLSCAASGRILRYYAMGWYGQAPGKDRELVAVITSSDGSTYYADSVKGRITISRDNAMNTVYLQMNSLKPEDTAVYYCAAAPLWRLASWWDPYRRYDYWGQGTQVTVSS is low polyreactivity

polyreactivity (PSR sort gate) for QGQLVESGGGLVQAGGSLRLSCAASGSTFRNYAMGWYRQAPGKERELVAAISGSGGRTNYADSVKGRFTISRDNAKNTVYLQMNSLKPEDTAVYYCNARFPDWALSEISLSTTYGYWGQGTQVTVSS is low polyreactivity

polyreactivity (PSR sort gate) for QVQLVESGGGLVQAGGRLRLSCAASGFTFWRNAMGWYRQAPGKERELVAAISRRGGNTYYADSVKGRFTISRDNAKNCVYLQMNSLKPEDTAVYYCAADYSYYYGYDYWGQGTQVTVSS is high polyreactivity
